# target.entity: M2 (Homo sapiens)
# measurement.description: In vitro functional assay of muscarinic acetylcholine receptor activity, M2
# Format: cell-based
# details: antagonist IC50 at M2; read-out: M2 IC50
pIC50: −log10 of the molar value.
quantity: pIC50

The examples below pair each entry with its known result.
> print(dat)
                                   compound      target.entity  observed.measurement
1  N#Cc1cc(N2C3CCC2CN(C(=O)CCS(=O)(=O)c2cccc4ncsc24)C3)ccc1F  M2 (Homo sapiens)                < 5.00
2  C[C@H]1CN(c2cnc(C(F)(F)F)nc2)CCN1C(=O)CCS(=O)(=O)c1cccc2ncsc12  M2 (Homo sapiens)                < 5.00
3  C[C@H]1CN(c2c[nH]c(=O)cc2Cl)CCN1C(=O)CCS(=O)(=O)c1cccc2ncsc12  M2 (Homo sapiens)                < 5.00
4  N#Cc1ccc(N2C3CCC2CN(C(=O)CCNCc2c(F)ccc4nccn24)C3)nc1  M2 (Homo sapiens)          5.00 to 6.00
5  O=C(CCS(=O)(=O)c1cccc2ncsc12)N1CCN(c2ccc(C(F)(F)F)cn2)CC1  M2 (Homo sapiens)          5.00 to 6.00

Jot down pIC50 (M2 (Homo sapiens)) of O=C(CCNCc1c(F)ccc2nccn12)N1CC2CCC(C1)N2c1ccncc1F .
< 5.00

Recall the reported pIC50 of Cc1cc(F)cnc1N1CCN(C(=O)CCCc2cccc3nccn23)[C@@H](C)C1 on M2 (Homo sapiens) and write it down.
< 5.00

Report the value of pIC50 obtained on M2 (Homo sapiens) for Cn1cnc2cccc(S(=O)(=O)CCC(=O)N3CCN(c4ccc(C(F)(F)F)cn4)CC3)c21 .
6.00 to 7.00

Lab note: M2 (Homo sapiens) assay, enter pIC50 for N#Cc1ccc(N2C3CCC2CN(C(=O)CCOCc2cccc4ncnn24)C3)nc1 here
5.00 to 6.00

State pIC50 on M2 (Homo sapiens). Entry: Cc1cncc(Cl)c1N1CCN(C(=O)CCS(=O)(=O)c2cccc3ncsc23)CC1
< 5.00

State the measured pIC50 (M2 (Homo sapiens)) of Cc1ccncc1N1CCN(C(=O)CCCc2cccc3ncccc23)[C@H](C)C1
5.00 to 6.00

Enter measured pIC50, system M2 (Homo sapiens), for the compound shown: O=C(CCNCc1c(F)ccc2nccn12)N1CC2CCC(C1)N2c1ccc(C2CC2)cn1
5.00 to 6.00

Report value: pIC50, system: M2 (Homo sapiens), compound: CC1CN(c2ccc(F)cn2)CCN1C(=O)CCCc1cccc2ncccc12 (stereo not shown)
5.00 to 6.00

====

# target.entity: M2 (Homo sapiens, UniProt P08172)
# Sequence (P08172 whole entry): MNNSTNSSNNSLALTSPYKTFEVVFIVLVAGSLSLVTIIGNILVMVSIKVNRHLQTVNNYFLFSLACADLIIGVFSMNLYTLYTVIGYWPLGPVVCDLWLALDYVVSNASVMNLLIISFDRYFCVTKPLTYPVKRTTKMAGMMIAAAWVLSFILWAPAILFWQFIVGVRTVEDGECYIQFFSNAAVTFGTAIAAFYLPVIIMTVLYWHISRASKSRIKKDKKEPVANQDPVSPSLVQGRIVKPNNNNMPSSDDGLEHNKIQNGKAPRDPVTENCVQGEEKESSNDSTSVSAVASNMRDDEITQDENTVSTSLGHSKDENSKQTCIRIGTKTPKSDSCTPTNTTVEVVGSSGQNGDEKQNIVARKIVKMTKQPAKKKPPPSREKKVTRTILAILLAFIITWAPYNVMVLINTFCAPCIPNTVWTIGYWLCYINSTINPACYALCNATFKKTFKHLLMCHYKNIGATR
# measurement.description: In vitro functional assay of muscarinic acetylcholine receptor activity, M2
# Type: cell-based
# details: antagonist IC50 at M2; read-out: M2 IC50
pIC50: −log10 of the molar value.
quantity: pIC50

Please supply the value of reported pIC50 for the item N#Cc1ccc(-c2ccc(N3C4CCC3CN(C(=O)CCNCc3cccc5ncnn35)C4)cc2)nc1 [Example 175]
5.00 to 6.00

Return value of pIC50 for input N#Cc1ccc(C2=CC3CCC2CN3C(=O)CCS(=O)(=O)c2cccc3ncsc23)nc1 (centres unmarked) [Example 27] , no commentary.
6.00 to 7.00

Indicate its recorded pIC50; the compound in question is O=C(C1CC1COc1cccc2ncsc12)N1C[C@H]2CC[C@@H](C1)N2c1ccncc1F (some centres unmarked) [Example 9]
5.00 to 6.00

Identify measured pIC50 corresponding to Cc1ccc2ncccc2c1COCCC(=O)N1CC2CCC(C1)N2c1ccc(C#N)cn1 [Example 177]
5.00 to 6.00

Assign pIC50 to the following record: Cc1cc(F)cnc1N1CCN(C(=O)CCCc2cccc3nc(N)sc23)[C@@H](C)C1 [Example 20]
5.00 to 6.00

====

# target.entity: M3 (Homo sapiens, UniProt P20309)
# Sequence (P20309 whole entry): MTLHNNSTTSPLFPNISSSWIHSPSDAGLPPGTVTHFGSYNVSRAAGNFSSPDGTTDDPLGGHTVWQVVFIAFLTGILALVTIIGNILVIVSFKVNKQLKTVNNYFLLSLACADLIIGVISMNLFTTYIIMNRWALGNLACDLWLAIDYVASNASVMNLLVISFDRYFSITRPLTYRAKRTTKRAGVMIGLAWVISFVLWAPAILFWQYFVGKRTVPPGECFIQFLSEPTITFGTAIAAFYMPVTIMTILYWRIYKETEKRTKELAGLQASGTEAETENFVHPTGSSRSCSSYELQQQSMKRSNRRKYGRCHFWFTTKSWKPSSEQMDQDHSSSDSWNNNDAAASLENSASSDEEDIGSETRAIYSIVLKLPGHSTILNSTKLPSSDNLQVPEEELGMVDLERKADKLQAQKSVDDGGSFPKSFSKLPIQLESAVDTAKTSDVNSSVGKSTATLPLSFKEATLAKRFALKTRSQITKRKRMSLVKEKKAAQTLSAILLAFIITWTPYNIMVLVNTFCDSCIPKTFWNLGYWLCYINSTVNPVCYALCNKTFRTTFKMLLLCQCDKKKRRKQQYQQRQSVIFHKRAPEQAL
# measurement.description: In vitro functional assay of muscarinic acetylcholine receptor activity, M3
# Format: cell-based
# details: antagonist IC50 at M3; read-out: M3 IC50
pIC50: −log10 of the molar value.
quantity: pIC50

Example entries and their recorded answers appear below.
> print(dat)
                                   compound  observed.measurement
1  O=C(N1CC(Oc2cccc3cnccc23)C1)N1C[C@H]2CC[C@@H](C1)N2c1ccc(F)cn1 [Example 3]          5.00 to 6.00
2  N#Cc1ccc(N2C3CCC2CN(C(=O)CCOCc2cccc4nccnc24)C3)nc1 [Example 37]                < 5.00

Give the measured pIC50 for C[C@H]1CN(c2ncc(F)cc2C#N)CCN1C(=O)CCCc1cccc2ncccc12 [Example 90]
< 5.00

Give the reported value of pIC50 for this record: C[C@@H]1CN(c2ccncc2Cl)CCN1C(=O)CCCc1cccc2ncccc12 [Example 77]
5.00 to 6.00

Please look at this compound and report its pIC50: N#Cc1ccc(N2C3CCC2CN(C(=O)COCc2cccc4ncnn24)C3)nc1 [Example 182]
< 5.00

Give recorded pIC50. CN(CCC(=O)N1CC2CCC(C1)N2c1ccc(C#N)cn1)Cc1cccc2ncsc12 [Example 169]
5.00 to 6.00

Give the reported pIC50 for this compound. N#Cc1ccc(N2CC3CCC(C2)N3C(=O)CCNCc2cccc3ncsc23)nc1 [Example 160]
< 5.00

Return value of pIC50 for input O=C(CCS(=O)(=O)c1cccc2ncsc12)N1CCN(c2c(Cl)cncc2Cl)CC1 [Example 105] , no commentary.
5.00 to 6.00

Identify measured pIC50 corresponding to Cc1cc(F)cnc1N1CC(C)N(C(=O)CCS(=O)(=O)c2cccc3ncsc23)C(C)C1 (stereo not drawn) [Example 135]
5.00 to 6.00

Source listed as patent US11512090B2.
